Molecular target: gelatinase A-catalytic domain
Test: gelatinase A catalytic domain hydrolysis of gelatin, GA CD (Gel)
Format: biochemical
Settings: gelatin substrate
pIC50: −log10 of the molar value.
measured quantity: pIC50

CC(C)[C@H](NS(=O)(=O)c1ccc(-c2ccc(F)cc2)cc1)C(=O)O [Example 16] ... 7.03
CC(C)[C@H](NS(=O)(=O)c1ccc(-c2cccc(Br)c2)cc1)C(=O)O [Example 7] ... 5.89
O=C(O)[C@H](Cc1ccccc1)NS(=O)(=O)c1ccc(-c2ccc(Br)cc2)cc1 [Example 10] ... 7.35
O=C(O)CNS(=O)(=O)c1ccc(-c2ccc(Br)cc2)cc1 [Example 12] ... 7.10
C[C@H](NS(=O)(=O)c1ccc(-c2ccc(Br)cc2)cc1)C(=O)O [Example 13] ... 7.66
CC(C)C[C@H](NS(=O)(=O)c1ccc(-c2ccc(Br)cc2)cc1)C(=O)O [Example 14] ... 7.54
CC(C)[C@H](NS(=O)(=O)c1ccc(-c2ccc(C#N)cc2)cc1)C(=O)O [Example 5] ... 6.80
COc1ccc(-c2ccc(S(=O)(=O)N[C@H](C(=O)O)C(C)C)cc2)cc1 [Example 15] ... 7.85
CC(C)[C@H](NS(=O)(=O)c1ccc(-c2ccc(Br)cc2F)cc1)C(=O)O [Example 8] ... 7.72
